These data points were gathered from paper PMC12655733.

- testedSystem: Aβ1-42 fibrils (Homo sapiens, UniProt P05067)
- Construct: Wild-type α-syn and Aβ1-42 were expressed
- Sequence (P05067 672-713): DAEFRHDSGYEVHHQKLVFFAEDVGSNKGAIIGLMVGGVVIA
- methodNotes: Inhibition of thioflavin T binding to Aβ1-42 fibrils (fluorescence competition), Ki determination
- measurementParameters: calculated from IC50, competition with ThT 500 nM, fibrils 500 nM, mean ± SD of 3 experiments; read-out: Ki Aβ
measure: Ki (nM)
Report the value in nM with no unit label.

>  <smilesString>
CCc1ccc(C#Cc2cc3ccccc3[nH]2)cc1

>  <testedSystem>
Aβ1-42 fibrils (Homo sapiens, UniProt P05067)

>  <measure>
Ki

>  <recordedValue>
3.3

$$$$
>  <smilesString>
Nc1cccc(C#Cc2cc3ccccc3[nH]2)c1

>  <testedSystem>
Aβ1-42 fibrils (Homo sapiens, UniProt P05067)

>  <measure>
Ki

>  <recordedValue>
15.3

$$$$
>  <smilesString>
C(#Cc1cc2ccccc2[nH]1)c1ccccc1

>  <testedSystem>
Aβ1-42 fibrils (Homo sapiens, UniProt P05067)

>  <measure>
Ki

>  <recordedValue>
68.9

$$$$
>  <smilesString>
CN(C)c1ccc(C#Cc2cc3cccnc3[nH]2)cc1

>  <testedSystem>
Aβ1-42 fibrils (Homo sapiens, UniProt P05067)

>  <measure>
Ki

>  <recordedValue>
24.4

$$$$
>  <smilesString>
CN(C)c1ccc(C#Cc2cc3cnccc3[nH]2)cc1

>  <testedSystem>
Aβ1-42 fibrils (Homo sapiens, UniProt P05067)

>  <measure>
Ki

>  <recordedValue>
21.3

$$$$

The compound "CN(C)c1ccc(C#Cc2cc3ncccc3[nH]2)cc1" showed Ki equal to 21.3

The compound "CN(C)c1ccc(C#Cc2cc3cc(OCCF)ccc3[nH]2)cc1" showed Ki equal to 10.1
